# assay_notes: qHTS Assay for Lipid Storage Modulators (AID 1519); note: % is set by controls: 0 for no effect and ±100 for the full control effect
# cond: Drosophila S3 cells, BODIPY lipid droplet/cell ratio, laser cytometry; at 25.7 µM (top of the series); cells loaded with oleic acid
Records with an inconclusive call do not appear.
readout_label: activity change, negative = inhibition (%)

1. CCN(CC)Cc1cc(Nc2ccnc3cc(Cl)ccc23)ccc1O
-2.24
2. Cc1cc(C(=O)NNCc2ccccc2)no1
-1.95
3. CC1(C)S[C@@H]2[C@H](NC(=O)Cc3ccccc3)C(=O)N2[C@H]1C(=O)O
-1.47
4. Cc1c(C)c2c(c(C)c1O)CC[C@@](C)(CCC[C@@H](C)CCC[C@@H](C)CCCC(C)C)O2
-2.72
5. CCOc1ccc2c(c1)C(C)=CC(C)(C)N2
-15.7

* * *

Known activity change, negative = inhibition of a selection of molecules
# assay_notes: qHTS Assay for Lipid Storage Modulators (AID 1519); note: % is set by controls: 0 for no effect and ±100 for the full control effect
# cond: Drosophila S3 cells, BODIPY lipid droplet/cell ratio, laser cytometry; at 57.5 µM (top of the series); cells loaded with oleic acid
Records with an inconclusive call do not appear. Peptide text beside a SMILES is read from it.
readout_label: activity change, negative = inhibition (%)

1) NC(=O)c1ncn(C2OC(CO)C(O)C2O)n1 (stereo unspecified)
2.97
2) CC[N+](C)(C)Cc1ccccc1Br
0.506
3) CC1=C(/C=C/C(C)=C/C=C/C(C)=C/C=C/C=C(C)/C=C/C=C(C)/C=C/C2=C(C)CCCC2(C)C)C(C)(C)CCC1
1.45
4) CC1=C(/C=C/C(C)=C/C=C/C(C)=C/C=C/C=C(C)/C=C/C=C(C)/C=C/C2=C(C)C(=O)CCC2(C)C)C(C)(C)CCC1=O
5.18
5) CC(=O)N[C@@H](CC(=O)O)C(=O)N[C@@H](CCC(=O)O)C(=O)O (Ac-Asp-Glu-OH)
6.33
6) CN=C(NC#N)Nc1ccc(C2=NNC(=O)C[C@@H]2C)cc1
-3.97
7) Oc1cc(O)c2c(c1)OC(c1ccc(O)c(O)c1)C(O)C2 (stereo unspecified)
7.06
8) O=C(O)CN(CCN(CC(=O)O)CC(=O)O)CC(=O)O
6.6
9) Cc1c(C)c2c(c(C)c1O)CC[C@@](C)(CCC[C@H](C)CCC[C@H](C)CCCC(C)C)O2
0.911
10) Nc1c(Br)cc(Br)cc1CNC1CCC(O)CC1 (stereo unspecified)
7.29
11) CN1Cc2c(N)cccc2C(c2ccccc2)C1 (stereo unspecified)
0.643

* * *

# system: Calcium and integrin-binding protein 1 (Homo sapiens)
# assay_notes: Primary qHTS for Identification of Calcium Integrin Binding Protein 1 (CIB1) Competitor (AID 1508620);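 note: GST tagged CIB1 binding a fluorescein labelled alphaIIb integrin peptide tracer; top concentration of the series differs between compounds; % is set by controls: 0 for no effect and ±100 for the full control effect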
# cond: CIB1-GST / FITC-alphaIIb peptide fluorescence polarization; series mostly up to 57.7 µM
Results filed as inconclusive are left out. Activity calls are given as the source filed them. The call rests on the fitted dose curve; in most records, active means well fitted inhibition curve with a large enough effect; inconclusive means small, poorly fitted or top-dose-only effect; inactive means flat fitted curve, though single readings scatter.
readout_label: activity change, negative = inhibition

1. COC(=O)[C@H](CC1C=NC=N1)NCC12CC3CC(CC(C3)C1)C2 (some centres undefined)
inactive
2. CC(C)=CCC/C(C)=C/CC/C(C)=C/CC[C@]1(C)CCc2cc(O)cc(C)c2O1
inactive
3. C=C(C(=O)OC)C1CCC2(C)C(O[C@@H]3O[C@H](CO)[C@@H](O)[C@H](O)[C@H]3O)CC(=O)C(C)C2C1O (some centres undefined)
inactive
4. OCC1OC(Oc2cc(O)c3c(c2)OC(c2ccc(O)cc2)C(O)C3)C(O)C1O (centres undefined)
inactive

* * *

# assay_notes: P-glycoprotein substrates identified in KB-8-5-11 adenocarcinoma cell line, qHTS therapeutic library screen (AID 1346987); note: % is set by controls: 0 for no effect and ±100 for the full control effect; nearly all actives have a fitted effect of over 65% in size
# cond: KB-8-5-11 (P-gp overexpressing) viability, CellTiter-Glo, 72 h; series mostly up to 44.5 µM
Results filed as inconclusive are left out. Active and inactive are the calls of the source. Calls follow the shape of the dose curve; as a rule, active = well fitted inhibition curve with a large enough effect; inconclusive = small, poorly fitted or top-dose-only effect; inactive = flat fitted curve, though single readings scatter.
readout_label: activity change, negative = cytotoxicity

1) C/C=C/C=C/C=C/C(=O)O[C@@H]1[C@@H](OC)C2=C(C(=O)N(C(C)C(=O)O)C2)[C@@]2(C)CCCC(C)(C)[C@H]12 (stereo partly specified)
inactive
2) CC1(O)CCC2C(C(=O)O)=COC(OC3OC(CO)C(O)C(O)C3OC(=O)/C=C/c3ccc(O)cc3)C21 (stereo unspecified)
inactive
3) CC(C)C1=CC2=CCC3[C@](C)(CCC[C@@]3(C)C(=O)O)C2CC1O (stereo partly specified)
inactive
4) C[C@@H]1O[C@@H](O[C@@H]2[C@@H](O)[C@H](O[C@@H]3[C@@H](O)[C@@H](O)[C@H](O[C@H]4[C@H](OC(=O)[C@]56CCC(C)(C)C[C@H]5C5=CCC7[C@@]8(C)C[C@H](O)[C@H](O[C@@H]9O[C@@H](C)[C@H](O)[C@@H](O)[C@H]9O)[C@@](C)(CO)C8CC[C@@]7(C)[C@]5(C)C[C@H]6O)O[C@H](C)[C@H](O)[C@@H]4O)O[C@H]3C)OC[C@H]2O)[C@H](O)[C@H](O)[C@H]1O (stereo partly specified)
4.66% [at 9.29 µM] (inactive)
5) CC1=CC(=O)C2C(C)(C)CCCC2(C)C12CCC1(COC(=O)C1)O2 (stereo unspecified)
inactive
6) O=CCCCC=O
inactive

* * *

# Tested on: NIH3T3
# assay_notes: Cytotoxic Profiling of Annotated Libraries Using Quantitative High-Throughput Screening (AID 1296008); note: % is set by controls: 0 for no effect and ±100 for the full control effect; nearly all actives have a fitted effect of over 60% in size
# cond: Five cell lines viability, CellTiter-Glo ATP luminescence, 48-72 h; hits give low values
Results filed as inconclusive are left out.
readout_label: max response (%)

1. CNc1nc(Nc2cnn([C@H]3CCN(C4COC4)C[C@@H]3F)c2Cl)ncc1C(F)(F)F
-26.9
2. C[C@@H]1C/C=C/C=C\C=C\C=C\[C@H](O[C@@H]2O[C@H](C)[C@@H](O)[C@H](N)[C@@H]2O)C[C@@H]2O[C@](O)(C[C@@H](O)C[C@H]3O[C@@H]3/C=C/C(=O)O1)C[C@H](O)[C@H]2C(=O)O
-11.8
3. COc1ccc(C)c2sc(NC(=O)c3ccncc3)nc12
2.46
4. COCCCNCC1COc2ccccc2O1 (stereo not given)
4.14
5. CC(=O)NC(C(=O)OC1CCC(C)(C)C2CC=C3C(=O)OCC3(O)C12C)C(C)C (stereo not given)
-6.26
6. CC(C)C(=O)O[C@@H]1[C@@H](O)[C@@H](O[C@H]2O[C@H](CO)[C@@H](O)[C@H](O)[C@H]2O)O[C@H](CO)[C@H]1O
1.16
7. N#Cc1ccnc(N2C(=O)CC[C@H]2C(=O)N(c2cncc(F)c2)[C@H](C(=O)NC2CC(F)(F)C2)c2ccccc2Cl)c1
-4.58
8. CC(C)(O)/C=C1/C(=O)C(C)(C)C(=O)C(C)(C)C1(O)O[C@@H]1O[C@H](COC(=O)c2cc(O)c(O)c(O)c2)[C@@H](O)[C@H](O)[C@H]1O (stereo not given in full)
4.71
9. C[C@@H]1O[C@@H](O[C@H]2[C@H](OC(=O)C34CCC(C)(C)CC3C3=CCC5C6(C)CC(O)C(O[C@@H]7O[C@H](CO)[C@@H](O)[C@H](O)[C@H]7O)C(C)(C(=O)O)C6CCC5(C)C3(CO)CC4)O[C@H](C)[C@H](O)[C@@H]2O)[C@H](O)[C@H](O)[C@H]1O[C@@H]1OC[C@@H](O)[C@H](O)[C@H]1O (stereo not given in full)
2.3
10. COC1CC(=O)CCC(C)OC(=O)CC1O (stereo not given)
4.21
11. C=C1CC23CC1(O)CCC2C1=CC2OC(=O)C(C)(C2O)C1C3C(=O)O (stereo not given)
-19.3
12. O=C(O)C[C@@H](NC(=O)c1cc(-c2ccc(-c3ccncc3)cc2)cs1)c1ccccc1
1.34
13. CCC(=O)O[C@]1(C(=O)CCl)[C@@H](C)C[C@H]2[C@@H]3C[C@H](F)C4=CC(=O)C=C[C@]4(C)[C@@]3(F)[C@@H](O)C[C@@]21C
1.57
14. C=C1CC[C@H]2[C@@](C)(CCC[C@@]2(C)C(=O)O)[C@@H]1CCC(C)CCO (stereo not given in full)
3.89
15. COc1ccc2c3c1O[C@H]1C[C@@H](O)C=C[C@@]31CCN(C)C2
-4.93

* * *

# system: Retinoic acid receptor RXR-alpha (Homo sapiens) (UniProt P19793)
# Sequence (P19793 whole entry, looked up): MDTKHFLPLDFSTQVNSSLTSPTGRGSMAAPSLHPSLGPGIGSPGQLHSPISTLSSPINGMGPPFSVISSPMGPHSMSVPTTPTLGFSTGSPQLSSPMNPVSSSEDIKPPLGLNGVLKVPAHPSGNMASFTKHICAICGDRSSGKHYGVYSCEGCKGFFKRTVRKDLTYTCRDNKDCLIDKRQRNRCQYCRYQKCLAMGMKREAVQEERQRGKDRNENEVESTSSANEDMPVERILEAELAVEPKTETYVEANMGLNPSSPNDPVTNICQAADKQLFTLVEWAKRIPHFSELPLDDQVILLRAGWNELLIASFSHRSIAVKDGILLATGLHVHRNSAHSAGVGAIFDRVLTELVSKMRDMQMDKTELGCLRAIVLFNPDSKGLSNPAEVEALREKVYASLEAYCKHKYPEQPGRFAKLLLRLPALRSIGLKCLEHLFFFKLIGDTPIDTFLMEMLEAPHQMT
# assay_notes: qHTS assay for small molecule antagonists of retinoid X receptor alpha signaling (AID 588546);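 note: cells stimulated with 9-cis-retinoic acid as agonist; % is set by controls: 0 for no effect and ±100 for the full control effect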
# cond: HEK293T RXRa-UAS-bla, beta-lactamase ratio, antagonist mode
Records with an inconclusive call do not appear. Calls of active or inactive are those of the source. Calls follow the shape of the dose curve; as a rule, active = well fitted inhibition curve with a large enough effect in the signal ratio, with a control signal flat (not every such curve was filed as active); inconclusive = small, poorly fitted or top-dose-only effect, or effect the other way, or a change in a side signal; inactive = no such curve, though single readings can be large or run the other way; the % refers to the signal ratio.
readout_label: max response

1. CC1=CCC(C(C)(C)O)CC1 (configuration not stated)
-18.6% (inactive)
2. O=C(O)CCC(=O)C(=O)O
8.74% (inactive)
3. CC1=C2[C@@H]([C@H](C)CC[C@H]2/C=C(\C)C(=O)O)[C@H](O)C1
-2.22% (inactive)
4. C[C@H]1C[C@H]2[C@@H]3CCC4=CC(=O)C=C[C@]4(C)[C@@]3(F)[C@@H](O)C[C@]2(C)[C@@]1(O)C(=O)CO
-12.7% (inactive)
5. Nc1ccn([C@H]2CS[C@@H](CO)O2)c(=O)n1
12.8% (inactive)
6. CC(C)=O
3.03% (inactive)
7. CCCCC/C=C\C/C=C\CCCCCCCC(=O)O
12.5% (inactive)

Reference for the values: PubChem BioAssay (NCATS)
